Test system: IL1-induced NFκB activity
TEST DESCRIPTION: HEK-BlueIL1β NFκB Reporter Assay
Type: cell-based
CONDITION CONTEXT: nM range, read-out: IC50, inhibition of IL1-induced NFκB activity
Recorded IC50 by entry

- MOLECULE: "74804_07K10A: anti-IL1RAP mAb; VH SEQ ID NO:5, VL SEQ ID NO:22, κ light chain (antibody, V domains shown, 74804_07K10A VH; 74804_07K10A VL, 74804_29D13A VL and 74804_43F04A VL) VH: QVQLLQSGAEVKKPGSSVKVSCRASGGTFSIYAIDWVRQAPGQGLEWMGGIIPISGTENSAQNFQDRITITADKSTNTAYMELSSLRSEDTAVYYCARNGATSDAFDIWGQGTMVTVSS VL: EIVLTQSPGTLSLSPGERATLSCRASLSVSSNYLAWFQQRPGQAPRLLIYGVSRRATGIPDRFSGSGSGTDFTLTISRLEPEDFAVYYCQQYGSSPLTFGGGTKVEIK"
  QUANTITY UNIT: "nM"
  IC50: 3.19
- MOLECULE: "74804_05B24A: anti-IL1RAP mAb; VH SEQ ID NO:10, VL SEQ ID NO:26, κ light chain (antibody, V domains shown, 74804_05B24A VH; 74804_05B24A VL) VH: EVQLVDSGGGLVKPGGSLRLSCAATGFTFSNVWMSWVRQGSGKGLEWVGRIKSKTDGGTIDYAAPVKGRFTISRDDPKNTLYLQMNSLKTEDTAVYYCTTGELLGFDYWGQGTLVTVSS VL: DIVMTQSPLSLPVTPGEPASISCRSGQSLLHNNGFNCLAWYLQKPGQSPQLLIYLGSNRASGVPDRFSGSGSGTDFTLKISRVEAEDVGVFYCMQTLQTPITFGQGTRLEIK"
  QUANTITY UNIT: "nM"
  IC50: 0.446

Data credit: patent US20240392013A1
